# CONDITION: in isopropanol, 332.15 K
OUTCOME MEASURE: solubility (mole fraction)
Answer field: number only, no words.

Short answer for `C[C@@H]1CC[C@@]2(OC1)O[C@H]1C[C@H]3[C@@H]4CC=C5C[C@@H](O)CC[C@]5(C)[C@H]4CC[C@]3(C)[C@H]1[C@@H]2C` : solubility (mole fraction) was 0.00282

###

# CONDITION: in ethyl acetate, 321.65 K
OUTCOME MEASURE: solubility (mole fraction)
// no unit string in output, number only

Note to self: solubility (mole fraction) recorded for `C[C@@H]1CC[C@@]2(OC1)O[C@H]1C[C@H]3[C@@H]4CC=C5C[C@@H](O)CC[C@]5(C)[C@H]4CC[C@]3(C)[C@H]1[C@@H]2C` was 0.00545

###

# CONDITION: in isopropanol, 311.15 K
OUTCOME MEASURE: solubility (mole fraction)
I only need the number, thanks.

`C[C@@H]1CC[C@@]2(OC1)O[C@H]1C[C@H]3[C@@H]4CC=C5C[C@@H](O)CC[C@]5(C)[C@H]4CC[C@]3(C)[C@H]1[C@@H]2C` yielded solubility (mole fraction) of 0.00167

###

# CONDITION: in isopropanol, 304.65 K
OUTCOME MEASURE: solubility (mole fraction)
Note: the reply should be a number with no unit written.

The recorded solubility (mole fraction) for entry `C[C@@H]1CC[C@@]2(OC1)O[C@H]1C[C@H]3[C@@H]4CC=C5C[C@@H](O)CC[C@]5(C)[C@H]4CC[C@]3(C)[C@H]1[C@@H]2C` equals 0.00134

###

# CONDITION: in ethyl acetate, 307.15 K
OUTCOME MEASURE: solubility (mole fraction)
Answer with a number only.

get_value(item= `C[C@@H]1CC[C@@]2(OC1)O[C@H]1C[C@H]3[C@@H]4CC=C5C[C@@H](O)CC[C@]5(C)[C@H]4CC[C@]3(C)[C@H]1[C@@H]2C` , readout=solubility (mole fraction)) returns 0.00338

###

# CONDITION: in ethyl acetate, 310.65 K
OUTCOME MEASURE: solubility (mole fraction)
Just the number, please.

Input `C[C@@H]1CC[C@@]2(OC1)O[C@H]1C[C@H]3[C@@H]4CC=C5C[C@@H](O)CC[C@]5(C)[C@H]4CC[C@]3(C)[C@H]1[C@@H]2C` . Output solubility (mole fraction): 0.00383

###

# CONDITION: in ethanol, 311.65 K
OUTCOME MEASURE: solubility (mole fraction)
Just the number, please, no unit attached.

Form field solubility (mole fraction), entry `C[C@@H]1CC[C@@]2(OC1)O[C@H]1C[C@H]3[C@@H]4CC=C5C[C@@H](O)CC[C@]5(C)[C@H]4CC[C@]3(C)[C@H]1[C@@H]2C` : 0.00169

###

# CONDITION: in n-propyl acetate, 310.15 K
OUTCOME MEASURE: solubility (mole fraction)
Answer with the value's number alone.

Entry `C[C@@H]1CC[C@@]2(OC1)O[C@H]1C[C@H]3[C@@H]4CC=C5C[C@@H](O)CC[C@]5(C)[C@H]4CC[C@]3(C)[C@H]1[C@@H]2C` , solubility (mole fraction) reported as 0.00356

###

# CONDITION: in acetone, 319.15 K
OUTCOME MEASURE: solubility (mole fraction)
The reply should be a number, written without any unit.

Form: compound = `C[C@@H]1CC[C@@]2(OC1)O[C@H]1C[C@H]3[C@@H]4CC=C5C[C@@H](O)CC[C@]5(C)[C@H]4CC[C@]3(C)[C@H]1[C@@H]2C` ; solubility (mole fraction) = 0.00204

###

# CONDITION: in isopropanol, 303.15 K
OUTCOME MEASURE: solubility (mole fraction)
Give a plain numeric answer without units written out.

get_value(item= `C[C@@H]1CC[C@@]2(OC1)O[C@H]1C[C@H]3[C@@H]4CC=C5C[C@@H](O)CC[C@]5(C)[C@H]4CC[C@]3(C)[C@H]1[C@@H]2C` , readout=solubility (mole fraction)) returns 0.00123

###

# CONDITION: in n-propyl acetate, 296.15 K
OUTCOME MEASURE: solubility (mole fraction)
Number, no unit, nothing else.

Entry `C[C@@H]1CC[C@@]2(OC1)O[C@H]1C[C@H]3[C@@H]4CC=C5C[C@@H](O)CC[C@]5(C)[C@H]4CC[C@]3(C)[C@H]1[C@@H]2C` — recorded solubility (mole fraction) = 0.0021

###

# CONDITION: in ethyl acetate, 302.15 K
OUTCOME MEASURE: solubility (mole fraction)
Please give the numeric answer without any surrounding text.

response.value for `C[C@@H]1CC[C@@]2(OC1)O[C@H]1C[C@H]3[C@@H]4CC=C5C[C@@H](O)CC[C@]5(C)[C@H]4CC[C@]3(C)[C@H]1[C@@H]2C` (field: solubility (mole fraction)) = 0.00258

###

# CONDITION: in methanol, 317.65 K
OUTCOME MEASURE: solubility (mole fraction)
Just the number.

Form field solubility (mole fraction), entry `C[C@@H]1CC[C@@]2(OC1)O[C@H]1C[C@H]3[C@@H]4CC=C5C[C@@H](O)CC[C@]5(C)[C@H]4CC[C@]3(C)[C@H]1[C@@H]2C` : 0.000556

meta.source: BigSolDB 2.1
